target: EPHB1 (UniProt P54762)
Sequence (P54762 whole entry, looked up): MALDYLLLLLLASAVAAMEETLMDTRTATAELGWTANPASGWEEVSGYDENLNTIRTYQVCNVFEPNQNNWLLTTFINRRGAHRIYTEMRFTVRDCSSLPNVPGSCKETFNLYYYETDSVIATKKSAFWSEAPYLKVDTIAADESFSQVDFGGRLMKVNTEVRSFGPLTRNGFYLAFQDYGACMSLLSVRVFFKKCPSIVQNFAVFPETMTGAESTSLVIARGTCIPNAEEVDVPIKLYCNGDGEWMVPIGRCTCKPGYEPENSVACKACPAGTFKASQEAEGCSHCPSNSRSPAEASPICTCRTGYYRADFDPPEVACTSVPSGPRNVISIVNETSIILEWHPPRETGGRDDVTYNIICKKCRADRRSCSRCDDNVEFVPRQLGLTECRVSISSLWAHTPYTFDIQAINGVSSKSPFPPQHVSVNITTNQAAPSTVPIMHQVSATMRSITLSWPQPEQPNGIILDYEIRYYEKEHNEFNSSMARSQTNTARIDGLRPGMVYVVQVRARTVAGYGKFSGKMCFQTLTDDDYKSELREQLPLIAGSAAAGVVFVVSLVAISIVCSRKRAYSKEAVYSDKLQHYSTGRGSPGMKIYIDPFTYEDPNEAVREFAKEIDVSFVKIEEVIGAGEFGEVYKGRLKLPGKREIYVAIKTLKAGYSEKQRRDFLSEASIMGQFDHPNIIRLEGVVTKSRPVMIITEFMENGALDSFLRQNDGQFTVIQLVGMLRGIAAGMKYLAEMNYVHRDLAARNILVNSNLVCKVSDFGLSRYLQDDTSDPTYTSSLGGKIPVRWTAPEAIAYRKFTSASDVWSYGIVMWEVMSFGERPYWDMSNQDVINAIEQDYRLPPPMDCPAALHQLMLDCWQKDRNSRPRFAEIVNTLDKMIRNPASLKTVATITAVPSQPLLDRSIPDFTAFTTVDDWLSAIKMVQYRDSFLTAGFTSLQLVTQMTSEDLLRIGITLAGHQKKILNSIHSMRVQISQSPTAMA
assay method text: phosphorylation enrichment, bacterial display (enrichment ratio); higher = better substrate or ligand; peptides without Tyr show the background;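 note: 11-residue human phosphosite peptides and single-mutation variants displayed on the E. coli surface, counted by deep sequencing, each peptide's frequency after selection divided by its frequency in the unselected input library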;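 note: frequency after pTyr selection over input frequency; kinase dosed for 20-30% of maximal phosphorylation in three min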
measured metric: phosphorylation enrichment
Numbers only.

The following sequences have reported results that may help.
sequence input	target	phosphorylation enrichment
LQTYHYHGHSM [PDHA1_Y289_R288H]	EPHB1 (UniProt P54762)	0.689
ERIELYELDKK [PMM2_Y145_F144L]	EPHB1 (UniProt P54762)	0.664
HRGFLYLAIEY [TEK_Y899_Y897F]	EPHB1 (UniProt P54762)	0.986
CTTIHYNFMCH [TP53_Y234_N239H_YF]	EPHB1 (UniProt P54762)	0.558
EEEFEYMNRRR [ERBB3_Y1199_D1194E_YF]	EPHB1 (UniProt P54762)	0.693

Report phosphorylation enrichment for each item below.
1. GFWPRYVKVGS [NOG_Y172_R167G]
2. SVVVPYAPPEV [TP53_Y220_E221A]
3. AEYGLYAAMVR [VSX2_Y222_G223A]
4. QNKEDYAGLKE [GSTO1_Y139]
5. IDLEKYKLLPE [DHFR_Y157]
6. AFGEVYEGQVS [ALK_Y1131]
7. EFGEVYKGTLK [EPHA2_Y628_M631T]
8. HCFAAYFQQGD [GPI_Y351_R347C]

Reply:
0.594
0.508
8.53
0.494
0.528
0.539
0.539
1.05

Report phosphorylation enrichment for each item below.
1. HRGSLYLAIEY [TEK_Y899_Y897S]
2. ELTSVYDSRAR [SENP1_Y349]
3. LDYNEYFRNLN [HPRT1_Y198_D201N]
4. SYNNKYGMVAQ [APOB_Y276_K273N]
5. QISQDYGVLLE [PRDX3_Y172_R170Q]

Reply:
1: 0.819; 2: 0.35; 3: 0.559; 4: 0.381; 5: 0.876

Report phosphorylation enrichment for each item below.
1. VLNHAYENLTR [SYNE2_Y3255_D3253H]
2. EPSVDCCVVKI [CAD_Y735_Y735C]

Reply:
1: 0.366; 2: 0.449

Report phosphorylation enrichment for each item below.
1. SARFHYLMAEK [LDHB_Y173_R172H]
2. TEVRRYVLPLN [RPE65_Y368_P363T]

Reply:
1: 0.463; 2: 0.377
